The reported measurements were obtained from patent US12624096B2.

Target: htau40 (Homo sapiens, UniProt P10636)
Sequence (P10636 1-441 isoform P10636-8): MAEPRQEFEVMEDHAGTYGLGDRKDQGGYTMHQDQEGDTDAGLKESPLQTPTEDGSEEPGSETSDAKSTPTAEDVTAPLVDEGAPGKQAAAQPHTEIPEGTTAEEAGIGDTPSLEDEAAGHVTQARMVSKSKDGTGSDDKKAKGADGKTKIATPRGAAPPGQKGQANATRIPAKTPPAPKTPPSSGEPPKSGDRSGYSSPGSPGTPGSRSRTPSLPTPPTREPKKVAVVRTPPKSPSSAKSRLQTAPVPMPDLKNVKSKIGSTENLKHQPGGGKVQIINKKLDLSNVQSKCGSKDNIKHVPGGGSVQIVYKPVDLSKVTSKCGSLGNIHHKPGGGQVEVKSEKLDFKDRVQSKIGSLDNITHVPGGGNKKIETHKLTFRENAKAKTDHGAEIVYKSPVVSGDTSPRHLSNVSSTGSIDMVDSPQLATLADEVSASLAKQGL
Assay: Biacore X100 SPR of anti-tau mAbs on immobilised htau40
Assay type: binding
Settings: mAb, Table 27, immobilised hT40
parameter.measured: kd (s⁻¹)
Give just the number in s⁻¹; leave the unit off.

molecule	numeric.value
S1D12: anti-tau clone from immunised sheep, SEQ ID NO: 32 (protein, S1D12 amino acid sequence) scFv: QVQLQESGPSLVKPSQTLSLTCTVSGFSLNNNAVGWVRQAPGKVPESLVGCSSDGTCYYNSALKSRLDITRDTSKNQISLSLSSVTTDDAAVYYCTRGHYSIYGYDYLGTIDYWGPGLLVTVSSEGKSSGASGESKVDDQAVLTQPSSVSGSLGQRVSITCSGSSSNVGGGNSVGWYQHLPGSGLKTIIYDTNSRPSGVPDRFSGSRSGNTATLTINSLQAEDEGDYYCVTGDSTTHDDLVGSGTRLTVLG	4.093e-05

Okay, next one:
[in] # input molecule: CB7: anti-tau clone, SEQ ID NO: 364 (protein, CB7 amino acid sequence) scFv: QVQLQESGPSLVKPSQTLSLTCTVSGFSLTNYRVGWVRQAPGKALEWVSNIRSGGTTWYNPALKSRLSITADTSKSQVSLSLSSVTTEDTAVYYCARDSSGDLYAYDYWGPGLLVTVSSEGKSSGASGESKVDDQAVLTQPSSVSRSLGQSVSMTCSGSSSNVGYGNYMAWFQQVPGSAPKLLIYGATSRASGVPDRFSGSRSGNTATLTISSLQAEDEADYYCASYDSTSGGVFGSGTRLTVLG ; wanted: its kd
[out] 0.009451
